- ASSAY INFO: yeast display, Sf9 membrane polyspecificity reagent, FACS + sequencing; frameworks hold sequencing errors
QUANTITY MEASURED: polyreactivity (PSR sort gate)

Solved cases (10 shown):
SEQUENCE RECORD	QUANTITY MEASURED	READING
QVQLVESGGGLVQAGGSLRLSCAASGRIFFVNAMGWYRQAPGKERELVAAISSGGSTNYADSVKGRFTISRDNAKNTVYLQMNSLKPEDTAVYYCASSHYRYGTQGYDYWGQGTQVTVSS	polyreactivity (PSR sort gate)	low polyreactivity
QVQLVESGGGLVQAGGSLRLSCAASGSTFRPYGMGWYRQAPGKERELVAAINSGDSTYYADSVKGRFTISRDNAKNTFYLQMNSLKPEDTAVYYCNADVWWDTWFLDGYDYWGQGTQVTVSS	polyreactivity (PSR sort gate)	high polyreactivity
QVQLVESGGGLVQAGGSLRLSCAASGSILHVYAMGWYRQAPGKERELVAAISKSGTRTYYAVSVKGRFTISRDNAKNTVYLQMNRLKPEDTAVYYCAAERSQYVYSTDPYGYDYWGQGTQVTVSS	polyreactivity (PSR sort gate)	high polyreactivity
QVQLVESGGGLVQAGGSLRLSCAASGNTFRRNVMGWYRQAPGKERELVAAINRGGSTTYADSVKGRFTISRDNAKNTVFLQMNSLKPEDTAVYYCNAEKRGQSYRFDYWGQGTQVTVSS	polyreactivity (PSR sort gate)	high polyreactivity
QVQLVESGGGLVQAGGSLRLSCAASGRTFQGNVMGWYRQAPGKERELVAAISRSGSRTYYADSVKGRFTISRDNAKNTVYLQMNSLKPEDTAVYYCNALKSKRRQVIWYDYWGQGTQVTVSS	polyreactivity (PSR sort gate)	high polyreactivity
QVQLVESGGCLVQAGGSLRLSCAASGSTFVKIVMGWYRQAPGKERELVAGITRGGSTYYADSVKGRFTISRDNAKNTVYLQMNSLKPEDTPVYYCAKRYAWDRDYWGQGTQVTVSS	polyreactivity (PSR sort gate)	high polyreactivity
QVQLVESGGGLVQAGGSLRLSCAASGLILSSNAMGWYRKAPGQERELVAAITWDGDRTYADSVKGRFTISRDNAKNTVYLQMNSLKPEDTAVYYCAARIGTGVLTGRGANSHMDYWGQGTQVTVSS	polyreactivity (PSR sort gate)	low polyreactivity
QVQLVESGGGLVQAGVSLRLSCAASVSIFSGNTMGWYRQAPGKERELVAAIRWRGGTYYADSVKGRFTISRDNAKNTVYLQMNSLKPEDPAVYYCATSVKPSYDYWGQGTQVTVSS	polyreactivity (PSR sort gate)	low polyreactivity
QVQLVESGGGLVQAGGSLRISCAASGSIFKKYAMGWYIQAPGKEREFVAAITRGTYYADSVKGRFTISRDNAKNTVYLQMNSLKPEDTAVYDCYREYWGRGYYRVRGEYDYWGQGTQVTVSS	polyreactivity (PSR sort gate)	low polyreactivity
QVQLVESGGGLVQAGGSLRLSCAASGRIFDLNAMGWYRQAPGKERELVAAITWSGDSTYYADSVKGRFTISRDNAKNTVYLQMNSLNPEDTAVYYCAAASRTSYSWVDYEFDYWGQGTQVTVSS	polyreactivity (PSR sort gate)	low polyreactivity

Please examine the following record next.
Req: Tell me polyreactivity (PSR sort gate) reported for "QVQLVESGGGLVQAGGSLRLSCAASGRTMYRNAMGWYRQAPGKERELVDDISRSGGSTFYADSVKGRFTISRDNAKNTVYLQMNSLKPEDTAVYYCNADYQEYVSGYDYWGQGTQVTVSS"
Resp: high polyreactivity
